Tested on: NOMO1
Test: cell viability relative to DMSO control; higher = less cytotoxic
Conditions: RPMI 5 mM glucose + 10% FBS; 48 h; 15.4 µM
# maps each entry to its cell viability
Measured Parameter: cell viability (%)

Compound	Assayed Target	Measured Parameter	Units Of Measure	Experimental Result
N#Cc1ccnc(Nc2cc(C3CCN(C4COC4)CC3)cc(N3CCC(F)(F)C3)n2)c1	NOMO1	cell viability	%	44.7
C=CCc1cccc(/C=N/NC(=O)CN2CCN(Cc3ccccc3)CC2)c1O	NOMO1	cell viability	%	96.5
COC(=O)C1C2CC3c4[nH]c5cc(OC)ccc5c4CCN3CC2CC(OC(=O)c2cc(OC)c(OC)c(OC)c2)C1OC (stereo unspecified)	NOMO1	cell viability	%	95.7
C[C@H]1[C@@H](C(=O)C[C@H]2O[C@@H]3O[C@]4(C)CC[C@H]5[C@H](C)CC[C@@H]([C@H]2C)[C@@]35OO4)O[C@@H]2O[C@]3(C)CC[C@H]4[C@H](C)CC[C@@H]1[C@@]24OO3	NOMO1	cell viability	%	58.4
O=C(Oc1ccc([N+](=O)[O-])cc1)N1CCC(C(O)(c2ccc3c(c2)OCO3)c2ccc3c(c2)OCO3)CC1	NOMO1	cell viability	%	88.4
CC[C@]12\C=C/CN3CC[C@]4([C@@H](N(C)C5=CC(=C(C=C45)[C@]6(C[C@H]7C[C@H](CN(C7)CC8=C6[NH]C9=C8C=CC=C9)C(C)(F)F)C(=O)OC)OC)[C@](O)([C@@H]1OC(C)=O)C(=O)OC)[C@H]23	NOMO1	cell viability	%	23.7

====

System: P12-Ichikawa
Assay: AUC of viability dose-response curve (% viability x log10 dose units); higher = less sensitive
Conditions: RPMI 5 mM glucose + 10% dialyzed FBS; 48 h
Exam item: assign YES to entries whose AUC of viability dose-response curve is below 400 and NO to entries at or above 400. Note that a value of exactly 400 receives NO.

1. C[C@]12CC[C@H]3[C@@H](C\C=C/4C[C@@H](O)CC[C@]34C)[C@@H]1CCC2=O NO
2. [O-]C(=O)C1=C(C(=C(Cl)C(=C1Cl)Cl)Cl)C/2=C/3\C=C(I)/C(=O)/C(=C3OC4=C2C=C(I)C(=C4I)[O-])I NO
3. CCN(C(=O)C/1=C(O)/C2=C(C=CC=C2Cl)N(C)C1=O)C3=CC=CC=C3 YES
4. Oc1cccc(-c2nc(N3CCOCC3)c3oc4ncccc4c3n2)c1 NO
5. O=C(CCN1CCN(C(=O)OCc2cc(Cl)cc(Cl)c2)CC1)c1ccc2[nH]c(=O)oc2c1 NO
6. Cn1c(=O)n(-c2ccc(C(C)(C)C#N)cc2)c2c3cc(-c4cnc5ccccc5c4)ccc3ncc21 YES
7. CC[C@@]1(O)C(=O)OCC/2=C1/C=C3\N(CC4=CC5=CC(=CC=C5N=C34)O)C2=O YES

====

Test system: NOMO1
Experiment: cell viability relative to DMSO control; higher = less cytotoxic
Conditions: RPMI 5 mM glucose + 10% dialyzed FBS; 48 h; 0.000781 µM
Measured Parameter: cell viability

Compound	Experimental Result
CC(C)c1ccc(Cn2ccc3c4c(N)nc(NC5CC5)nc4ccc32)cc1	110%
NCCCCNCCCN	107%
NC(=O)C1CCCc2c1[nH]c1ccc(Cl)cc21 (centres undefined)	107%
CNC[C@H](O)c1cccc(O)c1	78.3%
CC/1=C(/C(CC(=O)N1)C2=CC=C(C=C2)C(F)(F)F)C(=O)NC3=C(F)C=C4[NH]N=CC4=C3 (centres undefined)	91.7%
CN1CCC[C@@H]1CCO[C@](C)(c1ccccc1)c1ccc(Cl)cc1	93.3%
O=C(O)/C=C/c1ccc(O)c(O)c1	105%
CC[C@@]1(O)C(=O)OCC/2=C1/C=C3\N(CC4=CC5=CC(=CC=C5N=C34)O)C2=O	111%
O=C(Nc1ncc(SCCN2CCCC2)s1)[C@]1(c2ccc([S+](=O)([O-])C3CC3)cc2)C[C@H]1C1CCCCC1	118%
COc1cccc([C@@H](C)NCCCc2ccccc2Cl)c1	86.2%
CNCc1ccc(-c2[nH]c3cc(F)cc4c3c2CCNC4=O)cc1	103%
Nc1nnc(-c2cccc(Cl)c2Cl)c(N)n1	76%
Cc1[nH]c(/C=C2\C(=O)Nc3ccccc32)c(C)c1CCC(=O)O	97%
CO/C1=C/C(C)=C\[C@@H](C)[C@@H](O)[C@@H](C)C/C(C)=C\C=C/[C@H](OC)[C@@H]([C@@H](C)[C@@H](O)[C@H](C)[C@@]2(O)C[C@@H](O)[C@H](C)[C@@H](C(C)C)O2)OC1=O	99.8%
CC(C)c1cc(C(=O)N2Cc3ccc(CN4CCN(C)CC4)cc3C2)c(O)cc1O	119%
Cc1cc(Nc2cc(CN3CCOCC3)c3nc(C)c(Cc4ccc(Cl)cc4F)n3n2)[nH]n1	102%
COC1=CC=C(C=C1O)C/2=C/C(=O)C3=C(O2)C=C(O)C=C3O	91.3%
CC1=C(CC(=O)O)c2cc(F)ccc2/C1=C\c1ccc([S+](C)[O-])cc1 (centres undefined)	128%
CN1\C(=C(\O)C2=C(C=CC=C2)[S+]1([O-])=O)C(=O)NC3=CC=CC=N3	87.5%
